Molecular target: CaV2.2 (Homo sapiens, UniProt Q00975)
Construct: expressed in transfected cells; host or cells: unnamed doxycycline-inducible cell line
Sequence (Q00975 whole entry): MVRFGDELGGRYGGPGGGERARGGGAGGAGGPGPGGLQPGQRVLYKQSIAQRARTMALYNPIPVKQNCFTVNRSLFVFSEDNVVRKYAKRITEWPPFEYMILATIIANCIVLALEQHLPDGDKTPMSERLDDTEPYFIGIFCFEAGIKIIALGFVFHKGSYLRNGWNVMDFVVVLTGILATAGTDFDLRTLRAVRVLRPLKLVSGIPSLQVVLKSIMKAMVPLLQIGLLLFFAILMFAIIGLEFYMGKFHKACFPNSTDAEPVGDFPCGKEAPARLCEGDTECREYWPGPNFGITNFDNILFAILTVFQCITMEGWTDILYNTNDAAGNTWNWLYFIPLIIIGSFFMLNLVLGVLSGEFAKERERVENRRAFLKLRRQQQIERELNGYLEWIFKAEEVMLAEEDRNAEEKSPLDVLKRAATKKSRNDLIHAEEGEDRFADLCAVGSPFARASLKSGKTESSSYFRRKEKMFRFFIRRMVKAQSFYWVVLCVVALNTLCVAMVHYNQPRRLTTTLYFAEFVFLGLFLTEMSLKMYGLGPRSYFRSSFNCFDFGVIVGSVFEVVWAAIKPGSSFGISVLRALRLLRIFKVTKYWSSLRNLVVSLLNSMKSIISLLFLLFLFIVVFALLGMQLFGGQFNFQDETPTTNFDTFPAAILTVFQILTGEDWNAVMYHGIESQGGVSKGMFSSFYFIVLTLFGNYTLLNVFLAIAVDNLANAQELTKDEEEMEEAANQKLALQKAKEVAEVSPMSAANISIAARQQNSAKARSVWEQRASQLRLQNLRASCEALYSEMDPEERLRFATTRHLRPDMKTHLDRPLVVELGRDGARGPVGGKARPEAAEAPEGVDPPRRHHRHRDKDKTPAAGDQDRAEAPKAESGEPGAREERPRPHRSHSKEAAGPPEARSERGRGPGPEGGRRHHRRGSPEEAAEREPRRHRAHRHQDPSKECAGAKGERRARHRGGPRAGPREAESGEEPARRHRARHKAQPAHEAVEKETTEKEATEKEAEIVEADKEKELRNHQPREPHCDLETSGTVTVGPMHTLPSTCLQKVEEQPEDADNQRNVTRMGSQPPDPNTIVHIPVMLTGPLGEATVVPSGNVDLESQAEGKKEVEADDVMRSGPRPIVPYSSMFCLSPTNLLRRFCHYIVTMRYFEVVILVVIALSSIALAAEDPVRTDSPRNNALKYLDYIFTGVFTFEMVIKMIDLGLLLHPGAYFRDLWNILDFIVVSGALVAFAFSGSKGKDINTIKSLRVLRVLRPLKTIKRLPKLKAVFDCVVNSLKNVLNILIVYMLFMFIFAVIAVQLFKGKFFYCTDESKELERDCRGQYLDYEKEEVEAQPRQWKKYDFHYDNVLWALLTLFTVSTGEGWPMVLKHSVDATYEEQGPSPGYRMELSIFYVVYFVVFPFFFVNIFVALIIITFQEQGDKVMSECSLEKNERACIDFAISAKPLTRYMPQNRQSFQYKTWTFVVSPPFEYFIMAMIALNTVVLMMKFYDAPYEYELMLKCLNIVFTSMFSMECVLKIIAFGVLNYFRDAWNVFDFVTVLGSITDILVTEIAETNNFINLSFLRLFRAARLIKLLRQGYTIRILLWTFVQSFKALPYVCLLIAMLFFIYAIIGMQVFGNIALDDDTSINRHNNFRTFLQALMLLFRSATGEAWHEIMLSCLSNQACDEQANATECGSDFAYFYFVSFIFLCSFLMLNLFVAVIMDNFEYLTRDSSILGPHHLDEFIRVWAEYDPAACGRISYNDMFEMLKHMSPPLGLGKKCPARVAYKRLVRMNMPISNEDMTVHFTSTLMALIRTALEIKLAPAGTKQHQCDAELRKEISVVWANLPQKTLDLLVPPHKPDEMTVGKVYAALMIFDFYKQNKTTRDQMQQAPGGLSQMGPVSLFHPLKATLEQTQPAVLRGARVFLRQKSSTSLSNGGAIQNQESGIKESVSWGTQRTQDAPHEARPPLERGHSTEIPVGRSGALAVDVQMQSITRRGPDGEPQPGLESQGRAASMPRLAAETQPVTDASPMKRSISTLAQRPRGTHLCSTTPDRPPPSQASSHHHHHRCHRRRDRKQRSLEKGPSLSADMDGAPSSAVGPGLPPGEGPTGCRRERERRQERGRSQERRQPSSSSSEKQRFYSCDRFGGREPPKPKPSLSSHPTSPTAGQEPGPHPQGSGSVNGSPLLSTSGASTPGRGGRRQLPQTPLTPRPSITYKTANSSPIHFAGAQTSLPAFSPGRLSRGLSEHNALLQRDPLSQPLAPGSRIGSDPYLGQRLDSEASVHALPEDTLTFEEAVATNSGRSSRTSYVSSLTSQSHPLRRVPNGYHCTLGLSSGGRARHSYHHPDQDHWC
Sequence (P54284 whole entry partner): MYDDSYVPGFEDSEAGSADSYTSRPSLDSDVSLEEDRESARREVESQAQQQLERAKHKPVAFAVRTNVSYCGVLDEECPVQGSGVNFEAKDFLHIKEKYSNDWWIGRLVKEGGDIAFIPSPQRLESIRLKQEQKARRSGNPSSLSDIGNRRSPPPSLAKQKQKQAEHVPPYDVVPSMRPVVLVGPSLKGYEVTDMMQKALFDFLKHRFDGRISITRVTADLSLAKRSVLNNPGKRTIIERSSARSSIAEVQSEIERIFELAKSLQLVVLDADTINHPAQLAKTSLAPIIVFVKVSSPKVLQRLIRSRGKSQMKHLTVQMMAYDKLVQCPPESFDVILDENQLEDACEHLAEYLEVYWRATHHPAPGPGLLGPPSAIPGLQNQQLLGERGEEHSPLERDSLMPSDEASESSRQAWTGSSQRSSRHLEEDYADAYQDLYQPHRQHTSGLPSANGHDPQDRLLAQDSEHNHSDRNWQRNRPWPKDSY
Sequence (P54289 25-946 partner limits assumed): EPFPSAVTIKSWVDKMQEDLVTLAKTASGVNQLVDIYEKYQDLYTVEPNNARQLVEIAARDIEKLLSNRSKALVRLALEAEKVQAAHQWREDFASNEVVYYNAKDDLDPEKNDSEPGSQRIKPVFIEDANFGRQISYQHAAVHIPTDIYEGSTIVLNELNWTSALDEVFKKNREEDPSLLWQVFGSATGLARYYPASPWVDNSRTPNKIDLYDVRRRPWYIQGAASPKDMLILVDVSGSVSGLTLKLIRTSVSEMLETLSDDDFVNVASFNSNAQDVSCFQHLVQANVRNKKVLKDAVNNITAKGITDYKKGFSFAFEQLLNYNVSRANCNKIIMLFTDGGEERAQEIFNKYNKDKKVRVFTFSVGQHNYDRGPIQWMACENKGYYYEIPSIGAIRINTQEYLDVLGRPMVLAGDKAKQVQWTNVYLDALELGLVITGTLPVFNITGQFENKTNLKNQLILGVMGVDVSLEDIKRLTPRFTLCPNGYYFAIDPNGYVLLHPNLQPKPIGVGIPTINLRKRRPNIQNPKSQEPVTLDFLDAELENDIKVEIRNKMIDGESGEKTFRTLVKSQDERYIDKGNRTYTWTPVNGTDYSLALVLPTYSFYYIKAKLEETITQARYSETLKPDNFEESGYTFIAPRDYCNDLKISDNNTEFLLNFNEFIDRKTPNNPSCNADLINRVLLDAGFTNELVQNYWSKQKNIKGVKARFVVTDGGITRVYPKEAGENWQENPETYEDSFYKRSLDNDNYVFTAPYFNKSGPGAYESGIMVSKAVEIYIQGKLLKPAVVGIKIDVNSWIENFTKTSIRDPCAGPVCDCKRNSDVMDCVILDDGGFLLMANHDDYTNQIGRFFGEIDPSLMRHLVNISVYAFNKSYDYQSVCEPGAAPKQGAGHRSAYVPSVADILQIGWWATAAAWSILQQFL
Sequence (P54289 947-1103 partner limits assumed): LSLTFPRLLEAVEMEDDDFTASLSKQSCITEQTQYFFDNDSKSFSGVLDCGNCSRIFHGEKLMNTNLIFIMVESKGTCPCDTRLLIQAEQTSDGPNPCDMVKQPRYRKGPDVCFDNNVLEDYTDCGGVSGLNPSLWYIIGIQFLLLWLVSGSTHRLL
Test: High-throughput CaV2.2/Kir2.3 FLIPR fluorescent assay
Format: cell-based
Conditions: Table 5; Fluo-4 FLIPR; closed or inactivated state not stated; read-out: FLIPR data CaV2.2
# Lookup of reported log10 of IC50 keyed by entry
assay.readout: log10 of IC50 (log10 of the value in µM)

- compound: "CC(C)(CNC(=O)c1ccc(F)cc1Cl)S(=O)(=O)c1cccc(C(F)(F)F)c1"
  log10 of IC50: 0.12
- compound: "CC(C)(CN1Cc2nc(C(F)(F)F)ccc2C1=O)S(=O)(=O)c1cccc(C(F)(F)F)c1"
  log10 of IC50: 1.00
- compound: "CC(C)(C(=O)Nc1ccc(Oc2ccc(C(F)(F)F)nc2)nc1)S(=O)(=O)c1cccc(OC(F)(F)F)c1"
  log10 of IC50: -0.15
- compound: "CC(C)(CCNC(=O)C1(N)CCS(=O)(=O)CC1)S(=O)(=O)c1cccc(C(F)(F)F)c1"
  log10 of IC50: 0.96
- compound: "CC(C)(CCNC(=O)C1(N)CCC1)S(=O)(=O)c1cccc(C(F)(F)F)c1"
  log10 of IC50: 0.77
- compound: "CC(C)(C(=O)N1CCN(c2cccc(C(F)(F)F)c2)CC1)S(=O)(=O)c1cccc(C(F)(F)F)c1"
  log10 of IC50: 0.08
- compound: "CC(C)(CCNC(=O)c1ccccc1S(C)(=O)=O)S(=O)(=O)c1cccc(C(F)(F)F)c1"
  log10 of IC50: 0.48
- compound: "CC(C)(C(=O)NCCc1c[nH]c2ccc(F)cc12)S(=O)(=O)c1cccc(C(F)(F)F)c1"
  log10 of IC50: -0.10
- compound: "CC1(C(=O)NCCC(C)(C)S(=O)(=O)c2cccc(C(F)(F)F)c2)CCCCN1 (stereo not shown)"
  log10 of IC50: 0.58
- compound: "CC(C)(CCNC(=O)[C@@H]1C[C@@H](F)CN1)S(=O)(=O)c1cccc(C(F)(F)F)c1"
  log10 of IC50: 0.95
- compound: "CC(C)(CNC(=O)c1ccc(S(C)(=O)=O)cc1Cl)S(=O)(=O)c1cccc(C(F)(F)F)c1"
  log10 of IC50: 0.47
- compound: "CC(C)(CNC(=O)c1cncc(C(F)(F)F)c1)S(=O)(=O)c1cccc(C(F)(F)F)c1"
  log10 of IC50: 0.12
- compound: "CC(C)(C(=O)NCC(O)c1ccccc1Cl)S(=O)(=O)c1cccc(C(F)(F)F)c1 (stereo not shown)"
  log10 of IC50: 0.04
- compound: "CC(C)(CNC(=O)c1ccc(S(C)(=O)=O)cc1)S(=O)(=O)c1cccc(C(F)(F)F)c1"
  log10 of IC50: 0.91
- compound: "CN1CCCCC1C(=O)NCCC(C)(C)S(=O)(=O)c1cccc(C(F)(F)F)c1 (stereo not shown)"
  log10 of IC50: 0.79
- compound: "CC(C)(CNC(=O)c1ccc(Cl)cc1)S(=O)(=O)c1cccc(C(F)(F)F)c1"
  log10 of IC50: 0.18
- compound: "Cc1c(C(=O)NCCC(C)(C)S(=O)(=O)c2cccc(C(F)(F)F)c2)sc2nc[nH]c(=O)c12"
  log10 of IC50: 0.52
- compound: "CC(C)(CNC(=O)c1ccnc(Cl)c1)S(=O)(=O)c1cccc(C(F)(F)F)c1"
  log10 of IC50: 0.60
- compound: "CC(C)(NC(=O)C(C)(C)S(=O)(=O)c1cccc(C(F)(F)F)c1)c1ccccc1"
  log10 of IC50: 0.63
- compound: "CC(C)(CCN1Cc2nc(C(F)(F)F)ccc2C1=O)S(=O)(=O)c1cccc(C(F)(F)F)c1"
  log10 of IC50: -0.38
- compound: "CC(C)(CCNC(=O)[C@H]1CCCC[C@@H]1N)S(=O)(=O)c1cccc(C(F)(F)F)c1"
  log10 of IC50: 0.24
- compound: "CC(C)(CCNC(=O)[C@@H](N)c1ccccc1)S(=O)(=O)c1cccc(C(F)(F)F)c1"
  log10 of IC50: 0.17
- compound: "CC(C)(C(=O)Nc1ccc(Oc2ccc(C(F)(F)F)cn2)nc1)S(=O)(=O)c1cccc(C(F)(F)F)c1"
  log10 of IC50: 0.01
- compound: "CC(C)(C(=O)NCC(O)c1ccc(C(F)(F)F)cc1)S(=O)(=O)c1cccc(C(F)(F)F)c1 (stereo not shown)"
  log10 of IC50: -0.39
- compound: "CC(C)(NC(=O)CC(C)(C)S(=O)(=O)c1cccc(C(F)(F)F)c1)c1ccccc1"
  log10 of IC50: 0.63

The reported measurements were obtained from patent US20140113898A1.
